Test system: MDA-MB-468 complex spheroids with HUVEC/MSC, viability
Assay: Anticancer human tumor MDA-MB-468 cell line growth inhibition; active = viability on the fitted dose curve at most 10% of control; inactive = the rest;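 also: spheroids exposed to agents for seven days; 100% = DMSO vehicle control viability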
Conditions: second compound 0.1 µM; first compound 0.3 µM
Give your call using only these classes: yes (1) for active, no (0) for inactive

What call does the record list for Nc1ccccc1NC(=O)c1ccc(CNC(=O)OCc2cccnc2)cc1 + NC1CCC(NC2CC2c2ccccc2)CC1 ?
no (0)

What call does the record list for Nc1ccccc1NC(=O)c1ccc(CNC(=O)OCc2cccnc2)cc1 + NC1CC1c1ccc(-c2cccc(O)c2)cc1 ?
yes (1)

What call does the record list for CCc1c2c(nc3ccc(O)cc13)-c1cc3c(c(=O)n1C2)COC(=O)[C@]3(O)CC + NC1CCC(NC2CC2c2ccccc2)CC1 ?
yes (1)

What call does the record list for COc1cc(C2c3cc4c(cc3C(OC3OC5COC(C)OC5C(O)C3O)C3COC(=O)C23)OCO4)cc(OC)c1O (configuration not stated) + NC1CC1c1ccc(-c2cccc(O)c2)cc1 ?
yes (1)

What call does the record list for COc1cc(C2c3cc4c(cc3C(OC3OC5COC(C)OC5C(O)C3O)C3COC(=O)C23)OCO4)cc(OC)c1O (configuration not stated) + NC1CCC(NC2CC2c2ccccc2)CC1 ?
no (0)

What call does the record list for CCN(c1cc(-c2ccc(CN3CCOCC3)cc2)cc(C(=O)NCc2c(C)cc(C)[nH]c2=O)c1C)C1CCOCC1 + NC1CCC(NC2CC2c2ccccc2)CC1 ?
no (0)

What call does the record list for NS(=O)(=O)OCC1CC(n2ccc3c(NC4CCc5ccccc54)ncnc32)CC1O (configuration not stated) + NC1CC1c1ccc(-c2cccc(O)c2)cc1 ?
yes (1)

What call does the record list for NS(=O)(=O)OCC1CC(n2ccc3c(NC4CCc5ccccc54)ncnc32)CC1O (configuration not stated) + NC1CCC(NC2CC2c2ccccc2)CC1 ?
yes (1)

What call does the record list for Nc1ncn(C2CC(O)C(CO)S2)c(=O)n1 (configuration not stated) + NC1CCC(NC2CC2c2ccccc2)CC1 ?
no (0)

What call does the record list for Nc1ccn(C2OC(CO)C(O)C2(F)F)c(=O)n1 (configuration not stated) + NC1CCC(NC2CC2c2ccccc2)CC1 ?
yes (1)

What call does the record list for Nc1ccn(C2OC(CO)C(O)C2(F)F)c(=O)n1 (configuration not stated) + NC1CC1c1ccc(-c2cccc(O)c2)cc1 ?
yes (1)

What call does the record list for Nc1ncn(C2CC(O)C(CO)S2)c(=O)n1 (configuration not stated) + NC1CC1c1ccc(-c2cccc(O)c2)cc1 ?
no (0)

====

Can you tell me viability, T/C for the items I'm about to list?
Tested on: MDA-MB-468 complex spheroids with HUVEC/MSC, viability
Assay: Anticancer human tumor MDA-MB-468 cell line growth inhibition;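 also: spheroids exposed to agents for seven days; 100% = DMSO vehicle control viability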
Conditions: second compound 0.316 µM; first compound 0.1 µM; hits give low values
Give the number; % is assumed, so skip it.

get_value(item= CC1COCCN1c1cc(C2(S(C)(=N)=O)CC2)nc(-c2ccnc3[nH]ccc23)n1 (stereo unspecified) + NC1CC1c1ccc(-c2cccc(O)c2)cc1 , readout=viability, T/C) returns 104

get_value(item= O=C(c1cc(Cc2n[nH]c(=O)c3ccccc23)ccc1F)N1CCN(C(=O)C2CC2)CC1 + NC1CCC(NC2CC2c2ccccc2)CC1 , readout=viability, T/C) returns 87.8

get_value(item= CC(C)c1c(-c2ccccc2)nc2c(C#N)c[nH]n2c1=O + NC1CCC(NC2CC2c2ccccc2)CC1 , readout=viability, T/C) returns 101

get_value(item= CC1(C)CCC(CN2CCN(c3ccc(C(=O)NS(=O)(=O)c4ccc(NCC5CCOCC5)c([N+](=O)[O-])c4)c(Oc4cnc5[nH]ccc5c4)c3)CC2)=C(c2ccc(Cl)cc2)C1 + NC1CCC(NC2CC2c2ccccc2)CC1 , readout=viability, T/C) returns 119

get_value(item= CC(C)CC(NC(=O)C(Cc1ccccc1)NC(=O)c1cnccn1)B(O)O (stereo unspecified) + NC1CC1c1ccc(-c2cccc(O)c2)cc1 , readout=viability, T/C) returns 0.17

get_value(item= O=C(c1cc(Cc2n[nH]c(=O)c3ccccc23)ccc1F)N1CCN(C(=O)C2CC2)CC1 + NC1CC1c1ccc(-c2cccc(O)c2)cc1 , readout=viability, T/C) returns 88.2

====

Tested on: MDA-MB-468 complex spheroids with HUVEC/MSC, viability
Test: Anticancer human tumor MDA-MB-468 cell line growth inhibition; active = viability on the fitted dose curve at most 10% of control; inactive = the rest;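 also: spheroids exposed to agents for seven days; 100% = DMSO vehicle control viability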
Conditions: second compound 1 µM; first compound 0.1 µM
Give your call using only these classes: T = active, F = inactive

What call does the record list for Cn1ncnc1C1c2n[nH]c(=O)c3cc(F)cc(c23)NC1c1ccc(F)cc1 (configuration not stated) + NC1CCC(NC2CC2c2ccccc2)CC1 ?
F

What call does the record list for CC(C)CC(NC(=O)C(Cc1ccccc1)NC(=O)c1cnccn1)B(O)O (configuration not stated) + NC1CC1c1ccc(-c2cccc(O)c2)cc1 ?
T

What call does the record list for CC(C)c1c(-c2ccccc2)nc2c(C#N)c[nH]n2c1=O + NC1CC1c1ccc(-c2cccc(O)c2)cc1 ?
F

What call does the record list for O=C(C=Cn1cnc(-c2cc(C(F)(F)F)cc(C(F)(F)F)c2)n1)NNc1cnccn1 + NC1CCC(NC2CC2c2ccccc2)CC1 ?
T

What call does the record list for Nc1ncn(C2CC(O)C(CO)O2)c(=O)n1 (configuration not stated) + NC1CC1c1ccc(-c2cccc(O)c2)cc1 ?
F

What call does the record list for Nc1ncn(C2CC(O)C(CO)O2)c(=O)n1 (configuration not stated) + NC1CCC(NC2CC2c2ccccc2)CC1 ?
F

What call does the record list for CC1(C)CCC(CN2CCN(c3ccc(C(=O)NS(=O)(=O)c4ccc(NCC5CCOCC5)c([N+](=O)[O-])c4)c(Oc4cnc5[nH]ccc5c4)c3)CC2)=C(c2ccc(Cl)cc2)C1 + NC1CC1c1ccc(-c2cccc(O)c2)cc1 ?
F

What call does the record list for CC(C)CC(NC(=O)CNC(=O)c1cc(Cl)ccc1Cl)B1OC(=O)CC(CC(=O)O)(C(=O)O)O1 (configuration not stated) + NC1CC1c1ccc(-c2cccc(O)c2)cc1 ?
T

What call does the record list for CC1(C)CCC(CN2CCN(c3ccc(C(=O)NS(=O)(=O)c4ccc(NCC5CCOCC5)c([N+](=O)[O-])c4)c(Oc4cnc5[nH]ccc5c4)c3)CC2)=C(c2ccc(Cl)cc2)C1 + NC1CCC(NC2CC2c2ccccc2)CC1 ?
F

What call does the record list for CC1COCCN1c1cc(-c2ccnn2C)c2ccnc(-c3ccn[nH]3)c2n1 (configuration not stated) + NC1CC1c1ccc(-c2cccc(O)c2)cc1 ?
T

What call does the record list for Cn1ncnc1C1c2n[nH]c(=O)c3cc(F)cc(c23)NC1c1ccc(F)cc1 (configuration not stated) + NC1CC1c1ccc(-c2cccc(O)c2)cc1 ?
F

What call does the record list for COc1ccc([C@@H](O)c2cc(-c3ncnc4cc(N5CCOCC5)ccc34)c(F)cc2Cl)nn1 + NC1CCC(NC2CC2c2ccccc2)CC1 ?
F

====

System: MDA-MB-468 complex spheroids with HUVEC/MSC, viability
Assay: Anticancer human tumor MDA-MB-468 cell line growth inhibition;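 also: spheroids exposed to agents for seven days; 100% = DMSO vehicle control viability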
Settings: second compound 0.316 µM; first compound 0.001 µM; hits give low values
Can you tell me viability, T/C for the items I'm about to list?
Give the number; % is assumed, so skip it.

get_value(item= CC(C)CC(NC(=O)C(Cc1ccccc1)NC(=O)c1cnccn1)B(O)O (stereo not drawn) + NC1CCC(NC2CC2c2ccccc2)CC1 , readout=viability, T/C) returns 19.5

get_value(item= Cn1ncnc1C1c2n[nH]c(=O)c3cc(F)cc(c23)NC1c1ccc(F)cc1 (stereo not drawn) + NC1CCC(NC2CC2c2ccccc2)CC1 , readout=viability, T/C) returns 84.6

get_value(item= CC[C@@]1(O)C(=O)OCc2c1cc1n(c2=O)Cc2cc3c(CN(C)C)c(O)ccc3nc2-1 + NC1CC1c1ccc(-c2cccc(O)c2)cc1 , readout=viability, T/C) returns 57.1

get_value(item= CC(C)CC(NC(=O)C(Cc1ccccc1)NC(=O)c1cnccn1)B(O)O (stereo not drawn) + NC1CC1c1ccc(-c2cccc(O)c2)cc1 , readout=viability, T/C) returns 0.09

get_value(item= CC(C)CC(NC(=O)CNC(=O)c1cc(Cl)ccc1Cl)B1OC(=O)CC(CC(=O)O)(C(=O)O)O1 (stereo not drawn) + NC1CC1c1ccc(-c2cccc(O)c2)cc1 , readout=viability, T/C) returns 94.2

get_value(item= CC[C@@]1(O)C(=O)OCc2c1cc1n(c2=O)Cc2cc3c(CN(C)C)c(O)ccc3nc2-1 + NC1CCC(NC2CC2c2ccccc2)CC1 , readout=viability, T/C) returns 40.8

get_value(item= Cn1ncnc1C1c2n[nH]c(=O)c3cc(F)cc(c23)NC1c1ccc(F)cc1 (stereo not drawn) + NC1CC1c1ccc(-c2cccc(O)c2)cc1 , readout=viability, T/C) returns 79.1

get_value(item= CC(C)CC(NC(=O)CNC(=O)c1cc(Cl)ccc1Cl)B1OC(=O)CC(CC(=O)O)(C(=O)O)O1 (stereo not drawn) + NC1CCC(NC2CC2c2ccccc2)CC1 , readout=viability, T/C) returns 99.2
